- STUDY_TARGET: Influenza PB2 (Influenza A virus)
pIC50: −log10 of the molar value.
pIC50 overview

The examples below pair each entry with its known result.
molecule=O=C(O)[C@@H]1C2CCC(CC2)[C@H]1n1ccc2ccc(-c3c[nH]c4ncc(Cl)cc34)cc21 value_measured="5.00 to 6.00"
molecule=O=C(O)[C@@H]1C2CCC(CC2)[C@H]1n1ccc2ccc(-c3c[nH]c4ncc(F)cc34)nc21 value_measured="5.00 to 6.00"
molecule=CN(C)C(=O)N[C@@H]1CCC[C@H](n2ccc3cnc(-c4c[nH]c5ncc(F)cc45)nc32)C1 value_measured="4.00 to 5.00"
molecule=O=C(O)/C=C/n1ccc2cnc(-c3c[nH]c4ncc(F)cc34)nc21 value_measured="4.00 to 5.00"
molecule=C[C@@]1(C(=O)O)CCCC[C@H]1n1cc(F)c2cnc(-c3c[nH]c4ncc(Cl)cc34)nc21 value_measured="> 6.00"
molecule=CC(=O)N[C@H]1C2CCC(CC2)[C@@H]1n1cc(Cl)c2cnc(-c3c[nH]c4ncc(F)cc34)nc21 value_measured="4.00 to 5.00"
molecule=O=C(O)[C@@H]1CCC[C@H](n2ccc3cnc(-c4c[nH]c5ncc(F)cc45)nc32)C1 value_measured="5.00 to 6.00"
molecule=COC(=O)/C=C/n1ccc2cnc(-c3c[nH]c4ncc(F)cc34)nc21 value_measured="4.00 to 5.00"

Per the reported Influenza PB2 (Influenza A virus) data, O=C(O)c1cn([C@H]2C3CCC(CC3)[C@@H]2C(=O)O)c2nc(-c3c[nH]c4ncc(Cl)cc34)ncc12 has pIC50 of 5.00 to 6.00

Per the reported Influenza PB2 (Influenza A virus) data, O=C(N[C@H]1CCC[C@@H](n2cc(F)c3cnc(-c4c[nH]c5ncc(Cl)cc45)nc32)C1)N1CCc2ccccc21 has pIC50 of < 4.00

Per the reported Influenza PB2 (Influenza A virus) data, COC(=O)[C@@H](Cc1ccccc1)NC(=O)CCn1ccc2c(-c3c[nH]c4ncc(F)cc34)ncnc21 has pIC50 of < 4.00

Per the reported Influenza PB2 (Influenza A virus) data, COC(=O)NCCn1cc(-c2c[nH]c3ncc(F)cc23)c2cncnc21 has pIC50 of < 4.00

Per the reported Influenza PB2 (Influenza A virus) data, CCOC(=O)[C@@H]1C2CCC(CC2)[C@H]1n1cc(-c2ccc(O)cc2)c2cnc(-c3c[nH]c4ncc(F)cc34)nc21 has pIC50 of 4.00 to 5.00

Per the reported Influenza PB2 (Influenza A virus) data, CN(C)C(=O)N[C@H]1CC[C@@H](n2ccc3cnc(-c4c[nH]c5ncc(F)cc45)nc32)CC1 has pIC50 of 4.00 to 5.00

----------
pIC50: −log10 of the molar value.
Endpoint: pIC50. System: Influenza PB2 (Influenza A virus). Items follow.

The examples below pair each entry with its known result.
compound=CN(C)C(=O)CCn1ccc2cnc(-c3c[nH]c4ncc(F)cc34)nc21 value_measured="4.00 to 5.00"
compound="CC(C)(C)C(C(=O)O)n1ccc2cnc(-c3c[nH]c4ncc(F)cc34)nc21 (stereo not shown)" value_measured="5.00 to 6.00"
compound=CCOCCCCCOCCNC(=O)N[C@@H]1CCC[C@H](n2ccc3cnc(-c4c[nH]c5ncc(F)cc45)nc32)C1 value_measured="< 4.00"

Proceed to the following item.
Entry O=C(Cn1ccc2cnc(-c3c[nH]c4ncc(F)cc34)nc21)N[C@@H](Cc1ccccc1)C(=O)O , pIC50 reported as 4.00 to 5.00

----------
Endpoint: IC50. System: Influenza PB2 (Influenza A virus, UniProt P03428). Items follow.
Sequence (P03428 whole entry, looked up): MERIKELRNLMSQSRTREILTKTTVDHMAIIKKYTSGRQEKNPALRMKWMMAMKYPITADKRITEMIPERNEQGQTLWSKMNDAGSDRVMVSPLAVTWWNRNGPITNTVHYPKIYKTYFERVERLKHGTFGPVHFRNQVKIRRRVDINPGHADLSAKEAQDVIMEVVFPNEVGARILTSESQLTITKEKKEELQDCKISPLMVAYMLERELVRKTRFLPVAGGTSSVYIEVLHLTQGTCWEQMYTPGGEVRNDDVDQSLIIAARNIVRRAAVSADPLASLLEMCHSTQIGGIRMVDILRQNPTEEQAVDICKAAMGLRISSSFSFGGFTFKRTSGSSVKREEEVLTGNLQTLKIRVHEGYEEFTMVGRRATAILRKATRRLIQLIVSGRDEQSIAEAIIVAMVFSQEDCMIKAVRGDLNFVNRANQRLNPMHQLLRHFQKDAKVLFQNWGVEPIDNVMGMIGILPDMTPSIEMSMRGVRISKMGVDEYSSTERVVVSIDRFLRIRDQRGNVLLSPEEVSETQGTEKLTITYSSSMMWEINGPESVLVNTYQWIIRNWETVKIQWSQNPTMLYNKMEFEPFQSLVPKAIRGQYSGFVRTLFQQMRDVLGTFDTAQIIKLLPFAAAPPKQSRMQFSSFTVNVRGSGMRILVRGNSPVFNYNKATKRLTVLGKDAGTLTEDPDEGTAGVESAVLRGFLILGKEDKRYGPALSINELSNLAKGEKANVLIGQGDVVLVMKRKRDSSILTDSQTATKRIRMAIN

The examples below pair each entry with its known result.
compound=COC(=O)[C@@H]1C2CCC(CC2)[C@H]1n1cc(-c2ccn[nH]2)c2cnc(-c3c[nH]c4ncc(F)cc34)nc21 study_target="Influenza PB2 (Influenza A virus, UniProt P03428)" value_measured="1 to 10 µM"
compound=COC(=O)[C@H](Cc1ccccc1)NC(=O)Cn1ccc2cnc(-c3c[nH]c4ncc(F)cc34)nc21 study_target="Influenza PB2 (Influenza A virus, UniProt P03428)" value_measured="> 100 µM"
compound="CC(=O)N1CCCC(Cn2cc(F)c3cnc(-c4c[nH]c5ncc(F)cc45)nc32)C1 (stereo not shown)" study_target="Influenza PB2 (Influenza A virus, UniProt P03428)" value_measured="1 to 10 µM"
compound=CNC(=O)[C@]1(C)CCCC[C@H]1n1cc(F)c2cnc(-c3c[nH]c4ncc(Cl)cc34)nc21 study_target="Influenza PB2 (Influenza A virus, UniProt P03428)" value_measured="10 to 100 µM"

Per the reported Influenza PB2 (Influenza A virus, UniProt P03428) data, CC(C)(C)OC(=O)NCCn1cc(-c2c[nH]c3ncc(F)cc23)c2cncnc21 has IC50 of > 100 µM

Per the reported Influenza PB2 (Influenza A virus, UniProt P03428) data, CNC(=O)[C@@H]1C2CCC(CC2)[C@H]1n1cc(F)c2cnc(-c3c[nH]c4ncc(Cl)cc34)nc21 has IC50 of 1 to 10 µM

Per the reported Influenza PB2 (Influenza A virus, UniProt P03428) data, O=C(O)[C@@H]1C2CCC(CC2)[C@H]1n1cc(C(F)(F)F)c2cnc(-c3c[nH]c4ncc(F)cc34)nc21 has IC50 of < 1 µM

Per the reported Influenza PB2 (Influenza A virus, UniProt P03428) data, CNC(=O)N[C@H]1CC[C@@H](n2ccc3cnc(-c4c[nH]c5ncc(F)cc45)nc32)CC1 has IC50 of 1 to 10 µM

Per the reported Influenza PB2 (Influenza A virus, UniProt P03428) data, CCOC(=O)C1=CCCCC1n1cc(F)c2cnc(-c3c[nH]c4ncc(Cl)cc34)nc21 (stereo not shown) has IC50 of > 100 µM

Per the reported Influenza PB2 (Influenza A virus, UniProt P03428) data, CSCCCCc1cn([C@@H]2C3CCC(CC3)[C@H]2C(=O)O)c2nc(-c3c[nH]c4ncc(F)cc34)ncc12 has IC50 of < 1 µM

----------
pIC50 overview
- STUDY_TARGET: Influenza PB2 (Influenza A virus)
pIC50: −log10 of the molar value.

The examples below pair each entry with its known result.
molecule=Fc1cnc2[nH]cc(-c3ncc4c(F)cn(CC5CCNCC5)c4n3)c2c1 property=pIC50 value_measured="< 4.00"
molecule="O=C(O)[C@H]1C2CCC(CC2)C1n1ccc2cnc(-c3c[nH]c4ncc(F)cc34)nc21 (some centres unmarked) [Compound B122]" property=pIC50 value_measured="5.00 to 6.00"

Per the reported Influenza PB2 (Influenza A virus) data, CNC(=O)[C@@H]1C2CCC(CC2)C1n1cc(F)c2cnc(-c3c[nH]c4ncc(Cl)cc34)nc21 (single isomer, unassigned) [Compound B194] has pIC50 of 5.00 to 6.00

Per the reported Influenza PB2 (Influenza A virus) data, CCCCCOCCCCC(=O)N[C@H]1CCC[C@@H](n2ccc3cnc(-c4c[nH]c5ncc(F)cc45)nc32)C1 has pIC50 of < 4.00

Per the reported Influenza PB2 (Influenza A virus) data, CCOC(=O)[C@@H]1C2CCC(CC2)[C@H]1n1cc(F)c2cnc(-c3c[nH]c4ncc(C(F)(F)F)cc34)nc21 has pIC50 of < 4.00

----------
- STUDY_TARGET: Influenza PB2 (Influenza A virus)
- METHOD_NOTES: biochemical
- Format: binding
- RUN_PARAMETERS: read-out: Influenza PB2 affinity, IC50
pIC50: −log10 of the molar value.
pIC50 overview

The examples below pair each entry with its known result.
compound="O=C(O)[C@H]1C2CCC(CC2)[C@@H]1n1cc(Cl)c2cnc(-c3c[nH]c4ncccc34)nc21 [Compound B140]" property=pIC50 value_measured="> 6.00"
compound="NC(=O)C[C@H](NC(=O)Cn1ccc2c(-c3c[nH]c4ncc(F)cc34)ncnc21)C(=O)O [Compound A17]" property=pIC50 value_measured="5.00 to 6.00"
compound="COC(=O)[C@@]1(C)CCCC[C@H]1n1cc(Cl)c2cnc(-c3c[nH]c4ncc(F)cc34)nc21 [Compound B81]" property=pIC50 value_measured="< 4.00"
compound="O=C(O)[C@@H]1C2CCC(CC2)C1n1cc(F)c2cnc(-c3c[nH]c4ncc(Cl)cc34)nc21 (single isomer, unassigned) [Compound B144]" property=pIC50 value_measured="> 6.00"
compound="O=C(O)CCn1ccc2c(-c3c[nH]c4ncc(F)cc34)ncnc21 [Compound A5]" property=pIC50 value_measured="4.00 to 5.00"

Entry CN(C)C(=O)N[C@H]1C2CCC(CC2)[C@@H]1n1cc(Cl)c2cnc(-c3c[nH]c4ncc(F)cc34)nc21 [Compound B171] , pIC50 reported as 5.00 to 6.00

Entry O=C(O)[C@H]1C2CCC(CC2)[C@@H]1n1cc(Cl)c2cnc(-c3c[nH]c4ncc(F)cc34)nc21 [Compound B127] , pIC50 reported as > 6.00

Entry C[C@@]1(C(=O)O)CCCC[C@H]1n1cc(F)c2cnc(-c3c[nH]c4ncc(F)cc34)nc21 [Compound B89] , pIC50 reported as > 6.00
